test system: hormone receptor-positive breast cancer cell line (MCF-7); assay: Resazurin cytotoxicity assay, MCF-7; type: cell-based; details: Homo sapiens, MCF7; MCF-7 cells, 96 h treatment, resazurin
measured parameter: IC50

compound | study system | observed
C[C@H]1C(O)C(=O)CC2[C@]3(C)CC[C@@]4(C)C5CC(C)(C)CC[C@]5(C)CC[C@]4(C)C3CC[C@@]21C (stereo partly drawn) [Compound 2, 3α-hydroxyfriedel-2-one] | hormone receptor-positive breast cancer cell line (MCF-7) | 157 µM
CC(=O)OC1CCC2(C)C(CCC3(C)C2CC=C2C4CC(C)(C)CCC4(C(=O)O)CCC23C)C1(C)C (stereo not shown) | hormone receptor-positive breast cancer cell line (MCF-7) | 83.1 µM
COc1ccc(C(C)C(=O)c2ccc(OC)cc2O)cc1 (stereo not shown) | hormone receptor-positive breast cancer cell line (MCF-7) | 77.5 µM
CCCCCCCCCCCCCCOC(=O)/C=C/c1ccc(O)c(OC)c1 [Compound 8, tetradecyl (E)-ferulate] | hormone receptor-positive breast cancer cell line (MCF-7) | 223 µM
C=C(C)[C@@H]1CC[C@]2(C)CC[C@]3(C)[C@H](CC[C@@H]4[C@@]5(C)CC[C@H](O)C(C)(C)[C@@H]5CC[C@]43C)[C@@H]12 | hormone receptor-positive breast cancer cell line (MCF-7) | 149 µM
CC1=C(O)C(=O)CC2[C@]3(C)CC[C@@]4(C)C5CC(C)(C)CC[C@]5(C)CC[C@]4(C)C3CC[C@]12C (stereo partly shown) [Compound 3, 3-hydroxyfriedel-3-en-2-one] | hormone receptor-positive breast cancer cell line (MCF-7) | 101 µM
CC[C@H](/C=C/[C@@H](C)[C@H]1CC[C@H]2[C@@H]3CC=C4C[C@@H](O)CC[C@]4(C)[C@H]3CC[C@]12C)C(C)C | hormone receptor-positive breast cancer cell line (MCF-7) | 227 µM

Recorded values, source paper PMC10818308.
